Hi, quick share: literature Ki data for Muscarinic acetylcholine receptor M1 (Homo sapiens, UniProt P11229), several sources combined.
measured property: Ki (nM)

[1] COc1ccc([S+]([O-])c2ccc(C(C3CCCCC3)N3CCN(C4CCCCC4)CC3)cc2)cc1 (centres undefined)
[2] CN1CCCC(Oc2nc3ccccc3n2-c2ccccc2)C1 (racemic)
[3] CNc1ccnc(N2CCc3ccccc3C2)c1
Query: Rank the items in ascending order with respect to Ki. Please list the labels according to the requested order.
Reply: 1, 2, 3
(1: 52 nM, 2: 288 nM, 3: 1200 nM)
